Measured values drawn from ChEMBL document CHEMBL4152312 for this set.

Catalogue of inhibition values
Target: Tyrosine-protein kinase Lyn (Homo sapiens) (UniProt P07948)
Assay: Inhibition of recombinant human full-length N-terminal GST-tagged LYN-A expressed in insect cells at 500 nM by Z-LYTE assay relative to control
measurement-kind: inhibition (%)

{"molecule": "CN(C)CCn1cc(-c2cccc(O)c2)c2c(N)ncnc21", "measurement-kind": "inhibition", "experimental-value": 28}
{"molecule": "CCC(=O)Nc1ccc(-c2c[nH]c3ncnc(N[C@H](C)c4ccccc4)c23)cc1", "measurement-kind": "inhibition", "experimental-value": 14}
{"molecule": "OCc1ccc(-c2cc3c(N[C@H](CO)c4ccccc4)ncnc3[nH]2)cc1", "measurement-kind": "inhibition", "experimental-value": 74}
{"molecule": "OC[C@@H](Nc1ncnc2sc(-c3ccc(O)cc3)cc12)c1ccccc1", "measurement-kind": "inhibition", "experimental-value": 21}

---

Molecular target: Tyrosine-protein kinase JAK1 (Homo sapiens) (UniProt P23458)
Sequence (P23458 whole entry, the tested form may be a part): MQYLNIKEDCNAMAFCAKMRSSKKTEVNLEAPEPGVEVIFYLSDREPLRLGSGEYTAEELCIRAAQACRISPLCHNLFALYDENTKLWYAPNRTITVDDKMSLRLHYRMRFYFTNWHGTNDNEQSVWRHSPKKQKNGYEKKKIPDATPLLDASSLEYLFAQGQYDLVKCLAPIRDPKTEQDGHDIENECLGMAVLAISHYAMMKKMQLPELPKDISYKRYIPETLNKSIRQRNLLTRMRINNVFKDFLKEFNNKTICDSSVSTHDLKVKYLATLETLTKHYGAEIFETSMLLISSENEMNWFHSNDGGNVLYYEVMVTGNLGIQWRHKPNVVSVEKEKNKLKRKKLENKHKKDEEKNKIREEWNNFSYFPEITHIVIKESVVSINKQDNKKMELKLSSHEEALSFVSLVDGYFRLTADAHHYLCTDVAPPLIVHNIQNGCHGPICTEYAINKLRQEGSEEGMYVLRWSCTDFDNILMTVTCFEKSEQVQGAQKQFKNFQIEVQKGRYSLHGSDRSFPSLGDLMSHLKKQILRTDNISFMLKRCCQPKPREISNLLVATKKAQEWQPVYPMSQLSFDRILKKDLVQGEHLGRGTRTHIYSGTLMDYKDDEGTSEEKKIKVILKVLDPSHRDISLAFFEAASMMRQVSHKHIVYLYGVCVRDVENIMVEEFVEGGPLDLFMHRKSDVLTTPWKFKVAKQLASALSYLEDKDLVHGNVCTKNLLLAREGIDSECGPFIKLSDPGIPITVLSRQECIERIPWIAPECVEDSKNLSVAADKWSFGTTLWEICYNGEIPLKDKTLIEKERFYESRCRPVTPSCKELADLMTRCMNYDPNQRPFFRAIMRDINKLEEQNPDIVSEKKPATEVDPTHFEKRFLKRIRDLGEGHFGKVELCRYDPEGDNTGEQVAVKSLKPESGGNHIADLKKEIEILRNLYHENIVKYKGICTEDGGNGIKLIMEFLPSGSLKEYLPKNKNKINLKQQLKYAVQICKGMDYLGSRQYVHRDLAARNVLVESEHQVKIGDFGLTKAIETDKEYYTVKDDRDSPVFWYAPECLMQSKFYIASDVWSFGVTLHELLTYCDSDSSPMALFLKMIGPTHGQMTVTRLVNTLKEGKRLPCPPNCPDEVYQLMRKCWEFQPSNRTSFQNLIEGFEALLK
Test: Inhibition of recombinant human GST-tagged JAK1 cytoplasmic domain expressed in baculovirus expression system at 500 nM by Z-LYTE assay relative to control
measurement-kind: inhibition (%)

{"molecule": "CCC(=O)Nc1ccc(-c2c[nH]c3ncnc(N[C@H](C)c4ccccc4)c23)cc1", "experimental-value": 3}
{"molecule": "OC[C@@H](Nc1ncnc2sc(-c3ccc(O)cc3)cc12)c1ccccc1", "experimental-value": -2}
{"molecule": "CN(C)CCn1cc(-c2cccc(O)c2)c2c(N)ncnc21", "experimental-value": 3}
{"molecule": "OCc1ccc(-c2cc3c(N[C@H](CO)c4ccccc4)ncnc3[nH]2)cc1", "experimental-value": -1}

---

Molecular target: Proto-oncogene tyrosine-protein kinase receptor Ret (Homo sapiens)
Test: Inhibition of recombinant human GST-tagged RET cytoplasmic domain expressed in baculovirus expression system at 500 nM by Z-LYTE assay relative to control
measurement-kind: inhibition

{"molecule": "CN(C)CCn1cc(-c2cccc(O)c2)c2c(N)ncnc21", "measurement-kind": "inhibition", "experimental-value": "93%"}
{"molecule": "OC[C@@H](Nc1ncnc2sc(-c3ccc(O)cc3)cc12)c1ccccc1", "measurement-kind": "inhibition", "experimental-value": "12%"}
{"molecule": "CCC(=O)Nc1ccc(-c2c[nH]c3ncnc(N[C@H](C)c4ccccc4)c23)cc1", "measurement-kind": "inhibition", "experimental-value": "23%"}
{"molecule": "OCc1ccc(-c2cc3c(N[C@H](CO)c4ccccc4)ncnc3[nH]2)cc1", "measurement-kind": "inhibition", "experimental-value": "41%"}

---

Catalogue of inhibition values
Biological target: Protein kinase C alpha type (Homo sapiens) (UniProt P17252)
Test: Inhibition of recombinant human full length untagged PKCalpha expressed in baculovirus expression system at 500 nM by Z-LYTE assay relative to control

{"molecule": "OC[C@@H](Nc1ncnc2sc(-c3ccc(O)cc3)cc12)c1ccccc1", "system": "Protein kinase C alpha type (Homo sapiens) (UniProt P17252)", "unit-of-measurement": "%", "inhibition": 0}
{"molecule": "CN(C)CCn1cc(-c2cccc(O)c2)c2c(N)ncnc21", "system": "Protein kinase C alpha type (Homo sapiens) (UniProt P17252)", "unit-of-measurement": "%", "inhibition": 15}
{"molecule": "CCC(=O)Nc1ccc(-c2c[nH]c3ncnc(N[C@H](C)c4ccccc4)c23)cc1", "system": "Protein kinase C alpha type (Homo sapiens) (UniProt P17252)", "unit-of-measurement": "%", "inhibition": 21}
{"molecule": "OCc1ccc(-c2cc3c(N[C@H](CO)c4ccccc4)ncnc3[nH]2)cc1", "system": "Protein kinase C alpha type (Homo sapiens) (UniProt P17252)", "unit-of-measurement": "%", "inhibition": 6}

---

Biological target: Glycogen synthase kinase-3 alpha (Homo sapiens) (UniProt P49840)
Sequence (P49840 2-483 limits assumed): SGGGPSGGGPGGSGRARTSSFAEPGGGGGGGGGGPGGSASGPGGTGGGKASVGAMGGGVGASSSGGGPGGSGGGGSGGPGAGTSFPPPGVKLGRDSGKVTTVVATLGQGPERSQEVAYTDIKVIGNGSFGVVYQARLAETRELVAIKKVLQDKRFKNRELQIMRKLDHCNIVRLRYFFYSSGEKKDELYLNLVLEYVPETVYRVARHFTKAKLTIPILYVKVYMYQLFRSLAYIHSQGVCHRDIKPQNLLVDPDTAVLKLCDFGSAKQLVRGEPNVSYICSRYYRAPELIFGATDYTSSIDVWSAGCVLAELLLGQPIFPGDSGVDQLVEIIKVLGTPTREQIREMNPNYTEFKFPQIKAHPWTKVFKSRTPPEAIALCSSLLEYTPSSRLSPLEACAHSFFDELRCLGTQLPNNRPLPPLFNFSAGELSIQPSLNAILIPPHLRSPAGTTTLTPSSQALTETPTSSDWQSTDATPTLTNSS
Test: Inhibition of GSK3alpha (unknown origin) at 500 nM by Z-LYTE assay relative to control

{"molecule": "OC[C@@H](Nc1ncnc2sc(-c3ccc(O)cc3)cc12)c1ccccc1", "unit-of-measurement": "%", "inhibition": 9}
{"molecule": "OCc1ccc(-c2cc3c(N[C@H](CO)c4ccccc4)ncnc3[nH]2)cc1", "unit-of-measurement": "%", "inhibition": 4}
{"molecule": "CN(C)CCn1cc(-c2cccc(O)c2)c2c(N)ncnc21", "unit-of-measurement": "%", "inhibition": 3}
{"molecule": "CCC(=O)Nc1ccc(-c2c[nH]c3ncnc(N[C@H](C)c4ccccc4)c23)cc1", "unit-of-measurement": "%", "inhibition": 14}

---

Molecular target: Platelet-derived growth factor receptor alpha (Homo sapiens) (UniProt P16234)
Sequence (P16234 whole entry, the tested form may be a part): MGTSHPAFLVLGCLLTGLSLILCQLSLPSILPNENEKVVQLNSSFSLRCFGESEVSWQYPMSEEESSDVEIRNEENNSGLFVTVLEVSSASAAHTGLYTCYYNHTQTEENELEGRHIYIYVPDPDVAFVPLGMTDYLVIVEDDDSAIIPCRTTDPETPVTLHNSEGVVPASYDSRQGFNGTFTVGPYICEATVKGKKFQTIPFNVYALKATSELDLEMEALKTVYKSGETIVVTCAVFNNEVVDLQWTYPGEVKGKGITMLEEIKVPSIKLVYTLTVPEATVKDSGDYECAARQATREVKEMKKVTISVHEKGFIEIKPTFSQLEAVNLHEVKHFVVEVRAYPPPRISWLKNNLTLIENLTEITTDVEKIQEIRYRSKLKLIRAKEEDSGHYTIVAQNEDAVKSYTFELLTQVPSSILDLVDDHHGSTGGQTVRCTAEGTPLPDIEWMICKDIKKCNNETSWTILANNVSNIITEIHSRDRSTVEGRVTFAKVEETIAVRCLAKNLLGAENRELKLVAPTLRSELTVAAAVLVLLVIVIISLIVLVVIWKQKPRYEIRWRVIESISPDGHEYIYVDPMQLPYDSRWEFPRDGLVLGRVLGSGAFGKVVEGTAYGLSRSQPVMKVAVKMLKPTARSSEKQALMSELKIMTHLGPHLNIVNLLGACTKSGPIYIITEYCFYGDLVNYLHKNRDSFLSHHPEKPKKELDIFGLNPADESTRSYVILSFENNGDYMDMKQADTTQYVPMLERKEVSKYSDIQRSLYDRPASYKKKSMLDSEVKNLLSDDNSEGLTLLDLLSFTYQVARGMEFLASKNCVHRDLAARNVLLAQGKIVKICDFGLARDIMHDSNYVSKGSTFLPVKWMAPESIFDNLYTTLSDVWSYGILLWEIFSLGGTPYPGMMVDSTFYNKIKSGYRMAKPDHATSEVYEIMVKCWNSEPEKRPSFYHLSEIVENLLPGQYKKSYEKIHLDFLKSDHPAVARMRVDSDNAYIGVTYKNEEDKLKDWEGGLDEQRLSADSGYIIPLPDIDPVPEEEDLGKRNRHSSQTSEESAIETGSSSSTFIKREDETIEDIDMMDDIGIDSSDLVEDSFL
Assay: Inhibition of recombinant human GST-tagged PDGFRalpha cytoplasmic domain (550 to 1089 residues) expressed in baculovirus expression system at 500 nM by Z-LYTE assay relative to control
Catalogue of inhibition values

{"molecule": "OC[C@@H](Nc1ncnc2sc(-c3ccc(O)cc3)cc12)c1ccccc1", "inhibition": "0%"}
{"molecule": "CN(C)CCn1cc(-c2cccc(O)c2)c2c(N)ncnc21", "inhibition": "18%"}
{"molecule": "OCc1ccc(-c2cc3c(N[C@H](CO)c4ccccc4)ncnc3[nH]2)cc1", "inhibition": "12%"}
{"molecule": "CCC(=O)Nc1ccc(-c2c[nH]c3ncnc(N[C@H](C)c4ccccc4)c23)cc1", "inhibition": "8%"}

---

Catalogue of inhibition values
Target: Mitogen-activated protein kinase 8 (Homo sapiens) (UniProt P45983)
Sequence (P45983 whole entry): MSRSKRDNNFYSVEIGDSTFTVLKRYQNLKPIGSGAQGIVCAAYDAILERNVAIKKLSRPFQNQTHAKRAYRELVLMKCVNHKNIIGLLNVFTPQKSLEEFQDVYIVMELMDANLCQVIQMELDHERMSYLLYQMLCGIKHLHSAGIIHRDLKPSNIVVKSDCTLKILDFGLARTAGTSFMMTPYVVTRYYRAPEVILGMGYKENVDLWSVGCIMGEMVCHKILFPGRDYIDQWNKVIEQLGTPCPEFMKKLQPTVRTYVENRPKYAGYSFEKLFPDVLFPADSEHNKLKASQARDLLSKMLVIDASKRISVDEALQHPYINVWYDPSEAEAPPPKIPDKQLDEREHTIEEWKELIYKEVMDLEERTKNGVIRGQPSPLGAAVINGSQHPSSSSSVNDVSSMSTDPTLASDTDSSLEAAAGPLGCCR
Assay: Inhibition of recombinant human full length His-tagged JNK1 expressed in baculovirus expression system at 500 nM by Z-LYTE assay relative to control

{"molecule": "CCC(=O)Nc1ccc(-c2c[nH]c3ncnc(N[C@H](C)c4ccccc4)c23)cc1", "system": "Mitogen-activated protein kinase 8 (Homo sapiens) (UniProt P45983)", "inhibition, %": 4}
{"molecule": "OC[C@@H](Nc1ncnc2sc(-c3ccc(O)cc3)cc12)c1ccccc1", "system": "Mitogen-activated protein kinase 8 (Homo sapiens) (UniProt P45983)", "inhibition, %": 19}
{"molecule": "CN(C)CCn1cc(-c2cccc(O)c2)c2c(N)ncnc21", "system": "Mitogen-activated protein kinase 8 (Homo sapiens) (UniProt P45983)", "inhibition, %": 3}
{"molecule": "OCc1ccc(-c2cc3c(N[C@H](CO)c4ccccc4)ncnc3[nH]2)cc1", "system": "Mitogen-activated protein kinase 8 (Homo sapiens) (UniProt P45983)", "inhibition, %": -3}

---

Molecular target: UniProt P49841
Sequence (P49841 whole entry, looked up): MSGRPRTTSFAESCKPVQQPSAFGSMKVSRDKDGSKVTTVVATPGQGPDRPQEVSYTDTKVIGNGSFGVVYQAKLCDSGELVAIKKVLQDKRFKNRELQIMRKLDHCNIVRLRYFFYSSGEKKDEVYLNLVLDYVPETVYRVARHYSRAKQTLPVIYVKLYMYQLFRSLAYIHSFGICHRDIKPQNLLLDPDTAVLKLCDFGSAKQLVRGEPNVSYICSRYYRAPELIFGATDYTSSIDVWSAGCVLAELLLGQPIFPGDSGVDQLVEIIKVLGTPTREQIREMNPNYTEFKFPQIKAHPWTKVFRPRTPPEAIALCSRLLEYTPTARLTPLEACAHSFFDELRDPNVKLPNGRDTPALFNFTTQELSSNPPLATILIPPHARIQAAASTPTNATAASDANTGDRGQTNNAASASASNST
Assay: Inhibition of recombinant full-length human His-tagged GSK3beta expressed in baculovirus expression system at 500 nM by Z-LYTE assay relative to control

{"molecule": "CN(C)CCn1cc(-c2cccc(O)c2)c2c(N)ncnc21", "inhibition": "7%"}
{"molecule": "OC[C@@H](Nc1ncnc2sc(-c3ccc(O)cc3)cc12)c1ccccc1", "inhibition": "6%"}
{"molecule": "CCC(=O)Nc1ccc(-c2c[nH]c3ncnc(N[C@H](C)c4ccccc4)c23)cc1", "inhibition": "31%"}
{"molecule": "OCc1ccc(-c2cc3c(N[C@H](CO)c4ccccc4)ncnc3[nH]2)cc1", "inhibition": "10%"}

---

Target: Mitogen-activated protein kinase 13 (Homo sapiens)
Test: Inhibition of recombinant human full length His-tagged p38-delta expressed in baculovirus expression system at 500 nM by Z-LYTE assay relative to control
measurement-kind: inhibition

{"molecule": "OC[C@@H](Nc1ncnc2sc(-c3ccc(O)cc3)cc12)c1ccccc1", "measurement-kind": "inhibition", "experimental-value": "-2%"}
{"molecule": "CCC(=O)Nc1ccc(-c2c[nH]c3ncnc(N[C@H](C)c4ccccc4)c23)cc1", "measurement-kind": "inhibition", "experimental-value": "3%"}
{"molecule": "OCc1ccc(-c2cc3c(N[C@H](CO)c4ccccc4)ncnc3[nH]2)cc1", "measurement-kind": "inhibition", "experimental-value": "0%"}
{"molecule": "CN(C)CCn1cc(-c2cccc(O)c2)c2c(N)ncnc21", "measurement-kind": "inhibition", "experimental-value": "1%"}

---

Molecular target: Receptor tyrosine-protein kinase erbB-2 (Homo sapiens)
Test: Inhibition of recombinant human His-tagged ERBB2 cytoplasmic domain expressed in baculovirus expression system at 500 nM by Z-LYTE assay relative to control

{"molecule": "CN(C)CCn1cc(-c2cccc(O)c2)c2c(N)ncnc21", "inhibition [%]": 5}
{"molecule": "OC[C@@H](Nc1ncnc2sc(-c3ccc(O)cc3)cc12)c1ccccc1", "inhibition [%]": 30}
{"molecule": "CCC(=O)Nc1ccc(-c2c[nH]c3ncnc(N[C@H](C)c4ccccc4)c23)cc1", "inhibition [%]": 41}
{"molecule": "OCc1ccc(-c2cc3c(N[C@H](CO)c4ccccc4)ncnc3[nH]2)cc1", "inhibition [%]": 48}

---

Catalogue of inhibition values
Target: Tyrosine-protein kinase ABL1 (Homo sapiens) (UniProt P00519)
Sequence (P00519 whole entry): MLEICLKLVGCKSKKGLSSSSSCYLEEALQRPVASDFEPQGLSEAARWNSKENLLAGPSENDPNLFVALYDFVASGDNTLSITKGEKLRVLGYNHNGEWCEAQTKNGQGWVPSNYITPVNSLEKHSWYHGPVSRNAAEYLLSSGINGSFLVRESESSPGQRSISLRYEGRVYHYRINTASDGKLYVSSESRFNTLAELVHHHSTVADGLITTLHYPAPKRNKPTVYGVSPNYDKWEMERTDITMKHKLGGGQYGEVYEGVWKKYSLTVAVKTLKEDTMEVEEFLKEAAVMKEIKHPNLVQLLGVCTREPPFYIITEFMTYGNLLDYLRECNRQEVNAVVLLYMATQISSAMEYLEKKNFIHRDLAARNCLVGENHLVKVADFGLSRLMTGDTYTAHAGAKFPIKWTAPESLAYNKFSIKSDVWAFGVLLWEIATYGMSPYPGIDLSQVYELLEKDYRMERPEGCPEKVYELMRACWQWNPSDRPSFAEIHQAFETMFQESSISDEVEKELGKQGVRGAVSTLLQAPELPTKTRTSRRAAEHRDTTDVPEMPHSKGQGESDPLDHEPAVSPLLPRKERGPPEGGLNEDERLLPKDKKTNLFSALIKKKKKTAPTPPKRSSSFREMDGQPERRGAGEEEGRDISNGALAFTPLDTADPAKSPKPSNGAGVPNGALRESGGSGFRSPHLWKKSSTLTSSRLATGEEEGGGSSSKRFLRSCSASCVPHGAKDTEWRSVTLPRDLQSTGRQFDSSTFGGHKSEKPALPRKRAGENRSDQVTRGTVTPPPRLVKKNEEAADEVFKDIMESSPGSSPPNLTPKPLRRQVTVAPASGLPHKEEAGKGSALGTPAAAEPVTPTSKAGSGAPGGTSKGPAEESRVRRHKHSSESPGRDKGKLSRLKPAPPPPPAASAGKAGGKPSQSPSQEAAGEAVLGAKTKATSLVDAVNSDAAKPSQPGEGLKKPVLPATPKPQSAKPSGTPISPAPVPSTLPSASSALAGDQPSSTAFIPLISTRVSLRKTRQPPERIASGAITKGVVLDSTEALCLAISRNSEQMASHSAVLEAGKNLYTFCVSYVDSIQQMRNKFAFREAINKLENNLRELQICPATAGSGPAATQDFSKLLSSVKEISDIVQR
Assay: Inhibition of recombinant human full length His-tagged ABL1 expressed in baculovirus expression system at 500 nM by Z-LYTE assay relative to control
measurement-kind: inhibition

{"molecule": "OCc1ccc(-c2cc3c(N[C@H](CO)c4ccccc4)ncnc3[nH]2)cc1", "experimental-value": "84%"}
{"molecule": "CCC(=O)Nc1ccc(-c2c[nH]c3ncnc(N[C@H](C)c4ccccc4)c23)cc1", "experimental-value": "5%"}
{"molecule": "OC[C@@H](Nc1ncnc2sc(-c3ccc(O)cc3)cc12)c1ccccc1", "experimental-value": "8%"}
{"molecule": "CN(C)CCn1cc(-c2cccc(O)c2)c2c(N)ncnc21", "experimental-value": "69%"}
